- Tested on: T-47D spheroids with HUVEC/MSC, viability
- Experimental protocol: Anticancer human tumor T-47D cell line growth inhibition [PI3K];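 further: spheroids exposed to agents for seven days before reading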
- Test conditions: curve of first compound; second compound 0.0316 µM
Measured attribute: IC50

Please review the entries below; each comes with its answer.
CCCS(=O)(=O)Nc1ccc(F)c(C(=O)c2c[nH]c3ncc(-c4ccc(Cl)cc4)cc23)c1F + CC(Nc1ncnc2nc[nH]c12)c1cc2cccc(Cl)c2c(=O)n1-c1ccccc1: > 10 µM
CCCS(=O)(=O)Nc1ccc(F)c(C(=O)c2c[nH]c3ncc(-c4ccc(Cl)cc4)cc23)c1F + COc1c(OCCCN2CCOCC2)ccc2c3n(c(=NC(=O)c4cnc(N)nc4)nc12)CCN3: > 10 µM

Q) Recorded IC50 of CC1(C)CCC(Nc2ncc(C(F)(F)F)c(-c3c[nH]c4c(P(C)(C)=O)c(C#N)ccc34)n2)CN1 (stereo not given) + Cc1nc(NC(=O)N2CCCC2C(N)=O)sc1-c1ccnc(C(C)(C)C(F)(F)F)c1 , please.
A) 8.08 µM

Q) Which IC50 is listed for Cn1ncc(Cl)c1-c1cc(C(=O)NC(CN)Cc2cccc(F)c2)sc1Cl (stereo not given) + Cc1nc(NC(=O)N2CCCC2C(N)=O)sc1-c1ccnc(C(C)(C)C(F)(F)F)c1 ?
A) > 10 µM

Q) # input molecule: Cn1ncnc1[C@H]1c2n[nH]c(=O)c3cc(F)cc(c23)N[C@@H]1c1ccc(F)cc1 + CC(Nc1ncnc2nc[nH]c12)c1cc2cccc(Cl)c2c(=O)n1-c1ccccc1 ; wanted: its IC50
A) > 0.1 µM
